system-tested: GmRLK18-1 LRR domain (RHG1)
experiment-summary: Binding of CLE like peptides to purified LRR domain of the RLK at rhg1/Rfs2, titration by luminescence spectrometry
Set-up: species or system Glycine max
study-conditions: purified LRR domain; binding constants calculated from titration experiments; read-out: Kd (nM) RHG1
Where no end group is shown, it is not given here.
measurement-label: Kd (nM)
The figure you give is taken to be in nM; do not add the unit.

[[record]]
polymer_sequence = "KRLSPSGPDPHHH [N, KRLSPSGPDPHHH]"
measurement_label = "Kd"
endpoint_value = 30

[[record]]
polymer_sequence = "DLPLAPADRLAPGGPDPQHNVRAPPRKP [2L]"
measurement_label = "Kd"
endpoint_value = 142

[[record]]
polymer_sequence = "RTVPSGPDPLHH [compound 3, RTVPSGPDPLHH]"
measurement_label = "Kd"
endpoint_value = 29

[[record]]
polymer_sequence = "RAELDFNYMSKRRVPNGPDPIHNRRAGNSGR [36L]"
measurement_label = "Kd"
endpoint_value = 49

[[record]]
polymer_sequence = "KGLGLHEELRTVPSGPDPLHHHVNPPRQPR [3L]"
measurement_label = "Kd"
endpoint_value = 65


Consider the additional sequence presented here.
Record summary for SKRRVPNGPDPIHNR [compound 36, SKRRVPNGPDPIHNR] : reported Kd = 14
